Items are presented alongside their recorded normalized growth.
Assay: chemical genetic growth profiling, strain panel (AID 1159580);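 further: tested at 20 µM; growth read once vehicle control cultures reached saturation at 30 °C; 1 = growth at the plate median or of vehicle wells; lower values mean less growth of the strain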
Details: S. cerevisiae deletion strains, growth OD, locus YLR320W, strain mms22, stronger effect = lower value
The campaign covered roughly 5,500 compounds. About 2,000 (36%) were called active. Inconclusive results (about 18%) are left out. Some of the results follow.
parameter measured: normalized growth

* CCCCCCC(C)OC(=O)COc1ccc(Cl)cc1Cl (stereo not drawn) | 0.982 (inactive)
* C[C@@H]1CC[C@@]2(OC1)O[C@H]1CC3C4CC[C@H]5C[C@@H](O)CC[C@]5(C)C4CC[C@]3(C)[C@H]1[C@@H]2C (stereo partly drawn) | 0.99 (inactive)
* CC(=O)Oc1ccc2c(c1OC(C)=O)OCC1(O)Cc3c(cc(OC(C)=O)c(OC(C)=O)c3OC(C)=O)C21 (stereo not drawn) | 1.03 (inactive)
* O=c1cc(-c2ccc(O)cc2)oc2cc(O[C@@H]3O[C@H](CO)[C@@H](O)[C@H](O)[C@H]3O)cc(O)c12 | 1.05 (inactive)
* NC(=O)CN1CCCC1=O | 0.958 (inactive)
* COc1ccc2c(c1)CCC1C2CCC2(C)C1C[C@@H](O)C2O (stereo partly drawn) | 0.876 (active)
* CC1CC[C@@]2(OC1)O[C@H]1CC3C4CC[C@@H]5C[C@@H](O)CC[C@]5(C)C4CC[C@]3(C)[C@H]1[C@@H]2C (stereo partly drawn) | 1.04 (inactive)
* CC[n+]1c(-c2ccccc2)c2cc(N)ccc2c2ccc(N)cc21 | 0.872 (active)
* Cc1cc(OC(=O)c2c(C)cc(O)cc2O)cc(O)c1C(=O)O | 0.975 (inactive)
* COC1=CC(=O)C(O)=C/C1=C\C=C\c1ccccc1 | 0.0845 (active)
* CC(C1OC(C)(C)C(O)C1O)[C@@H]1CC[C@]2(C)C3=CCC4C(C)(C)C(=O)CC[C@]4(C)C3CC[C@@]12C (stereo partly drawn) | 0.877 (active)
* COc1c2ccoc2cc2oc(=O)ccc12 | 0.887 (inactive)
* O=c1ccc2c(O)c3ccoc3cc2o1 | 1.01 (inactive)
* O=c1c(O)c(-c2ccc(O)c(O)c2)oc2c(O[C@@H]3O[C@H](CO)[C@H](O)[C@@H](O)[C@H]3O)c(O)cc(O)c12 | 1.01 (inactive)
* CCOCN(C(=O)CCl)c1c(C)cccc1CC | 0.986 (inactive)
* CC(C)(C)NCC(O)c1cc(Cl)c(N)c(Cl)c1 (stereo not drawn) | 0.996 (inactive)
* CN[C@@H]1[C@@H](O)C(OC2[C@@H](N)C[C@@H](N)[C@H](O[C@H]3O[C@H](C(C)O)[C@@H](O)[C@H](O)[C@H]3N)[C@H]2O)OC[C@]1(C)O (stereo partly drawn) | 0.976 (inactive)
* C[C@@H]1O[C@@H](OC[C@H]2OC(Oc3c(-c4ccc(O)c(O)c4)oc4cc(O)cc(O)c4c3=O)[C@H](O)[C@@H](O)[C@@H]2O)[C@H](O)[C@H](O)[C@H]1O (stereo partly drawn) | 1.08 (inactive)
* O=C1C=C2C(=CCOC2O)O1 (stereo not drawn) | 0.701 (active)
* CC1CC[C@]2(NC1)O[C@H]1CC3C4CC[C@H]5C[C@@H](O)CC[C@]5(C)C4CC[C@]3(C)[C@H]1[C@@H]2C (stereo partly drawn) | 0.0887 (active)
* O=C(O[C@@H]1Cc2c(O)cc(O)cc2O[C@@H]1c1cc(O)c(=O)c2c(O)c(O)cc([C@H]3Oc4cc(O)cc(O)c4C[C@H]3OC(=O)c3cc(O)c(O)c(O)c3)c2c1)c1cc(O)c(O)c(O)c1 | 0.619 (active)
* Oc1ccc2c(c1)OCC1(O)Cc3cc(O)c(O)cc3C21 (stereo not drawn) | 1.04 (inactive)
* CC1O[C@@H](Oc2c(-c3ccc(O)c(O)c3)oc3cc(O)cc(O)c3c2=O)[C@H](O)[C@H](O)[C@H]1O (stereo partly drawn) | 0.991 (inactive)
* COc1cc(OC)c2ccc(=O)oc2c1 | 0.897 (inactive)
* CN[C@@H]1C(O)[C@@H](O[C@@H]2[C@@H](O)[C@H](O[C@H]3OC(CN)=CC[C@H]3N)[C@@H](N)C[C@H]2N)OC[C@]1(C)O (stereo partly drawn) | 0.988 (inactive)
* COC(=O)c1c(C)cc(OC)cc1O | 0.947 (inactive)
* C=C1CCC2(OC1)OC1CC3C4CC=C5CC(O)CC(O)C5(C)C4CCC3(C)C1C2C (stereo not drawn) | 0.929 (inactive)
* COc1ccccc1/C=C\C(=O)O | 0.942 (inactive)
* CCCCCC(=O)Cc1cc(O)cc(O)c1C(=O)Oc1cc(CC(=O)CCCCC)c(C(=O)O)c(OC)c1 | 0.826 (active)
* COc1ccc2ccc(=O)oc2c1 | 0.993 (inactive)
* N#Cc1nn(-c2c(Cl)cc(C(F)(F)F)cc2Cl)c(N)c1S(=O)C(F)(F)F (stereo not drawn) | 0.907 (inactive)
* CC(=O)OCC1=C(C(=O)O)N2C(=O)[C@@H](NC(=O)Cc3cccs3)[C@H]2SC1 | 0.978 (inactive)
* COC(=O)[C@@]1(C)CCC[C@]2(C)c3ccc(O)c(C(C)C)c3CCC12 (stereo partly drawn) | 0.695 (active)
* CCOC(=O)c1c(C)cc(O)cc1O | 0.916 (inactive)
* COc1ccc(-c2cc(=O)c3c(O)cc(O[C@@H]4O[C@H](CO[C@H]5O[C@H](C)[C@@H](O)[C@H](O)[C@@H]5O)[C@@H](O)[C@H](O)[C@H]4O)cc3o2)cc1O | 1.03 (inactive)
* O=c1c(O)c(-c2ccc(O)c(O)c2)oc2cc(O)cc(O)c12 | 0.869 (active)
* CCCCCCCCCCCC1=C(O)C(=O)C=C(O)C1=O | 0.83 (active)
* NC(N)=NC(=O)c1nc(Cl)c(N)nc1N | 1.01 (inactive)
